# target.or.system: PARP1 (Homo sapiens (Human))
# Sequence (P09874 whole entry): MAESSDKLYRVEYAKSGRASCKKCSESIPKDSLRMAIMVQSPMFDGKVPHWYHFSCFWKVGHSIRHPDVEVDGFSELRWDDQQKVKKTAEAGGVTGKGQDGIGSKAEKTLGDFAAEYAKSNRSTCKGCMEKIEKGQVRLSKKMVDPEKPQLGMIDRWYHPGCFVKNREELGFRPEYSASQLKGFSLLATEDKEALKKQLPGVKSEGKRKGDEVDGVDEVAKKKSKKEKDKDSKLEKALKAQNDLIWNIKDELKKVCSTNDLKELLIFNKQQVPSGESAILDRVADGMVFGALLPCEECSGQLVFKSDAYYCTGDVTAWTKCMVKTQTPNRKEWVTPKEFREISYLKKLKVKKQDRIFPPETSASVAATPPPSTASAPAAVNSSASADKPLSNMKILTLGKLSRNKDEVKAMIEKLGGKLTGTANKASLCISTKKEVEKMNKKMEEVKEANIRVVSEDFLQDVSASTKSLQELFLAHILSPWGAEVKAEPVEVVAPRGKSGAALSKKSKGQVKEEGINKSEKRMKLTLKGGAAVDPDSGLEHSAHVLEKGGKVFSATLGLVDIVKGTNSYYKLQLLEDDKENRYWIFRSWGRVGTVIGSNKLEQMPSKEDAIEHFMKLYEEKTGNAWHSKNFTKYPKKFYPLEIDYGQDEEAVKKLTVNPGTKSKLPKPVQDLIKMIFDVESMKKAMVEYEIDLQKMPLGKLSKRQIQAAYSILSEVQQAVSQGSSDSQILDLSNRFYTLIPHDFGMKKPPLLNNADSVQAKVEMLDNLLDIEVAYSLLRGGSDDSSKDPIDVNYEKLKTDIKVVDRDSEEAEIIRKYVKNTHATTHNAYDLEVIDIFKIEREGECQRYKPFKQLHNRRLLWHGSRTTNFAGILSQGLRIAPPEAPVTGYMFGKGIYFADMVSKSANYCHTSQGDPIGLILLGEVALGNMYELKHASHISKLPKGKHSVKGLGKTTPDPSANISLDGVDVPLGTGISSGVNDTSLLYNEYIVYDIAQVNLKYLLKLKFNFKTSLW
# assay.info: PARP1 enzymatic activity assay
# Assay type: biochemical
# setup.conditions: ratio IC50 (PARP2)/IC50 (PARP1)
reported.metric: PARP1/PARP2 inhibition Selectivity multiple N (N = IC50 (PARP2)/IC50 (PARP1))
Give bare numbers.

CCc1cc2nnc(CN3CCN(c4ccc(C(=O)NC)nc4)C4C[C@H]43)cc2[nH]c1=O (some centres unmarked) [Example 5]: 62
CCc1cc2ncc(CN3CCN(c4ccc(C(=O)NC)nc4)[C@@H]4CC[C@H]43)cc2[nH]c1=O [Example 2-3]: 48

Would you mind giving PARP1/PARP2 inhibition Selectivity multiple N (N = IC50 (PARP2)/IC50 (PARP1)) for every compound in the list below?
1. CCc1cc2nnc(CN3CCN(c4ccc(C(=O)NC)nc4)[C@@H]4CC[C@@H]43)cc2[nH]c1=O [Example 10-1]
2. CCc1nc2ncc(CN3CCN(c4ccc(C(=O)NC)nc4)[C@@H]4CC[C@@H]43)cc2[nH]c1=O [Example 11-2]
3. CNC(=O)c1ccc(N2CCN(Cc3cnc4cc(C(F)(F)F)c(=O)[nH]c4c3)[C@H]3CC[C@H]32)cn1 [Example 30-2]

[45, 135, 39]
